TEST_DETAILS: NCI Yeast Anticancer Drug Screen. Data for the cln2 rad14 strain (AID 165)
ASSAY_CONDITIONS: S. cerevisiae cln2 rad14 strain, at 50.0 µM
This is part of a sample that, as a whole, favours compounds with a hit. Of some 79,000 tested, about 15% had one in any assay. The source made the active and inactive calls. No stated cut-off is given here; in the data, active means growth inhibition above about 70%; inactive means the rest.
Hello, when you answer, please use one of the following outcomes: active, inactive

[[record]]
compound = "CCCCCCCCCCCCCCCCCC(=O)N1CC[N+](C)(C)CC1"
answer_label = "active"

[[record]]
compound = "CC(C)=C1CCC(CN2CCOCC2)C1=O (stereo not given)"
answer_label = "inactive"

[[record]]
compound = "O=C1c2ccccc2-c2c1c1ccccc1c(=O)n2Cc1ccccc1"
answer_label = "inactive"

[[record]]
compound = "CCCC(C)C(=O)OC1CCCC1 (stereo not given)"
answer_label = "inactive"


Hey, what did the test say about `O=C(O)c1c[nH]c2cc(OCc3ccc(Br)cc3)ccc2c1=O` ?
inactive
